# credit: the supplement of paper PMC12636428

system: Saccharomyces cerevisiae; assay: transcriptional activation domain activity (GFP:mCherry ratio, weighted mean of sorted bins, harmonized to initial dataset scale) (arbitrary fluorescence ratio units); higher = stronger transcriptional activation; settings: beta-estradiol 1 µM; induction time 4 h
Documented transcriptional activation domain activity across a set of sequences
Observed Property: transcriptional activation domain activity

seq=YILYMLRMSVRELTRSELLIVRLGRPTKLIIAGNWEINLLGIFVGLGIVCTEV target_entity="Saccharomyces cerevisiae" result=59400
seq=MWFLHPLPFPLASSTWLHFVVLSFYIFFFLPFPSCALVLFWCWFFLLVRLLTS target_entity="Saccharomyces cerevisiae" result=39400
seq=KSDVEADRQRLIYSGKVLKDDDILSSCKIQSGHTVHMVKGAARAAAASSSSAP target_entity="Saccharomyces cerevisiae" result=58300
seq=PLLACQVAYGFLVVFFSYSLIEEQVGCVIYYEHLVMLCWLVIIMPPNALLSTV target_entity="Saccharomyces cerevisiae" result=58700
